Assay: Cmax in Slc::ddY mouse at 10 mg/kg, po tid administered 1 hr post infection for 1 day
Assay type: ADME, organism-based
Design: dose 10 mg/kg, route oral
Details: in vivo
quantity.kind: Cmax (ng/mL)

line.notation	unit	observed.measurement
Cc1c(-c2ccccc2)c(N2CC[C@H](N(C)C)C2)n2c(nc3ncccc32)c1C#N	ng/mL	710

---

Test: Half life in Slc::ddY mouse at 10 mg/kg, po tid administered 1 hr post infection for 1 day
Format: ADME, organism-based
Set-up: dose 10 mg/kg, route oral
Settings: in vivo
quantity.kind: half-life (min)

line.notation	unit	observed.measurement
Cc1c(-c2ccccc2)c(N2CC[C@H](N(C)C)C2)n2c(nc3ncccc32)c1C#N	min	264
